Just for reference, the EternaBench riboswitch data is where these values come from.

tested on: MS2 coat protein; test: apparent Kd, MS2 coat protein; higher = weaker binding; RNA-MaP array; details: ligand present: flavin mononucleotide; designed as: OFF switch for flavin mononucleotide
quantity-measured: apparent Kd (nM)

sequence-code | unit-info | experimental-value
UUGAUAGCAGGAUAUACCAGUCAUGUCUCGCAAUUUACCCGACAUGAGGAUCACCCAUGUAGAAGGGCUGUUUA | nM | 14.5
UAAAGAUGUGCAGGAUAUUAGAAACGGCGGGAACUUAAAUUCAAACAUGAGGAUCACCCAUGUAAUAAGAAGGGCAAACUAAGA | nM | 20.6
CCCACGUACGAGAAGGCACCGGUUUGAUCCACGUAAGUCCUUUACAUGAGGAUCACCCAUGUAGGUGAGGAUAUCGUCAUGACU | nM | 264
ACAUACGAACGAGGAUAUCUCCACAUGAGGAUCACCCAUGUUUGGGUCCGAUAGUAGCGUGCAAAAGAGAAGGCGUGUACAUCC | nM | 25.5
ACUUAGAGAUAGAAGGAUGGAGUCAGGGUCCACAUAGGAUAUAUCUUGCACGAAACAUGAGGAUCACCCAUGUUGGAAUCCUCU | nM | 27.8
UAUACUAAUGUCAGGAUAUUAUAAAGUAAGAUAUAUAAGAAGGGACAUGAGGAUCACCCAUGUGACAAGGACGA | nM | 29.8
GAAAUAUAGUCAGGAUAUCAGGACAUGAGGAUCACCCAUGUACUGAAUGGGCUGGUGAAAAGAGAUGAGAAGGGACACACUAGA | nM | 5.78
